- target under test: HLA-A2 molecules (Homo sapiens, UniProt P04439, D140Y/D185E/D98H/E176V/E277Q/G131W/G231S/I119V/I121R/I166T/I218V/L300P/L318F/N151K/N90K/P208A/P217A/Q86G/Q94H/R138H/R169H/T345S)
- Construct: endogenous in cells; host or cells: T2 cells
- test description: T2 cell-binding assay: regulation of HLA-A2 expression on T2 cells by flow cytometry
- experimental context: peptide 25 μg/mL; T2 cells; flow cytometry
Item-by-item account of T2 Binding

biosequence: WLLPAAVVGT [Peptide P356, NGEP long form amino acids 356-365]
T2 Binding: 354 mean fluorescence intensity
--
biosequence: FLDNIRAAGL [Peptide P143, NGEP short form amino acids 143-152]
T2 Binding: 203 mean fluorescence intensity
--
biosequence: ILFEILAKT [Peptide P258, NGEP long form amino acids 258-266]
T2 Binding: 280 mean fluorescence intensity

====

- target under test: HLA-A2 molecules (Homo sapiens, UniProt P04439, D140Y/D185E/D98H/E176V/E277Q/G131W/G231S/I119V/I121R/I166T/I218V/L300P/L318F/N151K/N90K/P208A/P217A/Q86G/Q94H/R138H/R169H/T345S)
- Construct: endogenous in cells; host or cells: T2 cells
- test description: T2 cell-binding assay: regulation of HLA-A2 expression on T2 cells by flow cytometry
- experimental context: peptide 25 μg/mL; T2 cells; flow cytometry
observed property: T2 Binding

biosequence: GLFDEYLEMV [Peptide P703, NGEP long form amino acids 703-712]
val: 565 mean fluorescence intensity
--
biosequence: GLGGPPLPTL [Peptide P10, NGEP short form amino acids 10-19]
val: 212 mean fluorescence intensity
--
biosequence: HLFGYSWYK [CAP-7, reference compound]
val: 88.0 mean fluorescence intensity
--
biosequence: LVWEEDLKL [Peptide P113, NGEP short form amino acids 113-121]
val: 367 mean fluorescence intensity
--
biosequence: LLAIRLWAV [Peptide P846, NGEP long form amino acids 846-854]
val: 126 mean fluorescence intensity
--
biosequence: ALLSASWAV [Peptide P170, NGEP long form amino acids 170-178]
val: 185 mean fluorescence intensity
--
biosequence: VLLEVVPDV [Peptide P215, NGEP long form amino acids 215-223]
val: 464 mean fluorescence intensity
--
biosequence: IVFEHVVFSV [Peptide P855, NGEP long form amino acids 855-864]
val: 203 mean fluorescence intensity
--
biosequence: SLSYTNPAV [MUC-1, reference compound]
val: 452 mean fluorescence intensity

Data provenance: patent US8748390B2
